test: Clearance in Sprague-Dawley rat at 0.4 mg/kg, iv and 6 mg/kg, po; format: ADME, organism-based; details: in vivo
PROPERTY_MEASURED: clearance (mL/min/kg)

N=C(c1ccc(C(=O)Nc2ccccc2C(=O)Nc2ccc(Cl)cn2)cc1)N1CCCCC1 32.2

A = CN1CCN=C1c1ccc(C(=O)Nc2ccccc2C(=O)Nc2ccc(Cl)cn2)cc1
B = CN(C)C(=N)c1ccc(C(=O)Nc2ccccc2C(=O)Nc2ccc(Cl)cn2)cc1
In: Which value of clearance is smaller, the one for A or the one for B ? Kindly state the label of the option you pick.
Out: A
(A: 7.1 mL/min/kg, B: 16.8 mL/min/kg)
